# assay target: HLA-A*02:12
# test details: IEDB peptide-MHC binding, purified MHC/direct/fluorescence; filed as Kd, often an IC50 or EC50 that approximates it; bounds were set here for any values at or beyond the usual limits of such assays
# conditions: source organism: Limestone Canyon virus
pKd: −log10 of the molar value.
property: pKd

Query: Hello, please tell me recorded pKd for this one: `YRTLGVFRY`
Reply: ≤ 4.70

----------
# assay target: HLA-B*35:01
# test details: IEDB peptide-MHC binding, purified MHC/competitive/radioactivity; filed as Kd, often an IC50 or EC50 that approximates it; bounds were set here for any values at or beyond the usual limits of such assays
# conditions: source organism: Dengue virus 4 Philippines/H241/1956
property: pKd
Please express pKd as -log10 of the molar concentration.

FALLAGFMAY; 7.88

Shifting focus to the sequence that follows.
Query: Give pKd for `MAVFKMSPGY`
Reply: 6.18

----------
# assay target: HLA-A*33:01
# test details: IEDB peptide-MHC binding, purified MHC/competitive/radioactivity; filed as Kd, often an IC50 or EC50 that approximates it; bounds were set here for any values at or beyond the usual limits of such assays
# conditions: source organism: Mammarenavirus whitewaterense
property: Kd (nM)
Supply the numeric figure in nM, leaving out any unit text.

Query: Consider the sequence `LFYVSSIFLH` and give its recorded Kd.
Reply: 73.7

----------
# assay target: HLA-A*03:01
# test details: IEDB peptide-MHC binding, purified MHC/competitive/fluorescence; bounds were set here for any values at or beyond the usual limits of such assays
# conditions: source organism: Zaire ebolavirus
pIC50: −log10 of the molar value.
Answer F if pIC50 is under 5, and T if it is 5 or more.

KILTAGLSV; F
PLARTAKVK; T

Query: Hello, I need to know if `LSGVNNLEH` has measured pIC50 not below 5. Thanks!
Reply: F

Query: State whether the measured pIC50 reaches 5, counting equality as reaching it, for `KAIDFLLQR`
Reply: F

Query: Reported pIC50 reaches at least 5 for `GLITGGRRT` ?
Reply: F

Query: Could you verify whether the entry `ISNSVAQAR` shows pIC50 of no less than 5?
Reply: F

Query: Say whether `RTFSIPLGV` shows pIC50 of 5 or more.
Reply: T

----------
# assay target: HLA-A*23:01
# test details: IEDB peptide-MHC binding, purified MHC/direct/fluorescence; filed as Kd, often an IC50 or EC50 that approximates it; bounds were set here for any values at or beyond the usual limits of such assays
# conditions: source organism: Zaire ebolavirus
pKd: −log10 of the molar value.
property: pKd

Query: Retrieve pKd on HLA-A*23:01; query `TSACGIFLK`
Reply: ≤ 4.70

----------
# assay target: HLA-B*53:01
# test details: IEDB peptide-MHC binding, purified MHC/competitive/radioactivity; filed as Kd, often an IC50 or EC50 that approximates it; bounds were set here for any values at or beyond the usual limits of such assays
# conditions: source organism: Dengue virus 2 Jamaica/1409/1983
property: Kd (nM)
Numeric answer only, unit nM assumed.

RMAILGDTAW; 21.4

Let us examine a further case.
Query: Look up Kd of `PPFGDSYII` and report it.
Reply: 1740

----------
# assay target: HLA-B*51:01
# test details: IEDB peptide-MHC binding, purified MHC/competitive/radioactivity; filed as Kd, often an IC50 or EC50 that approximates it; bounds were set here for any values at or beyond the usual limits of such assays
# conditions: source organism: Vaccinia virus WR
property: pKd
Schema: pKd number; meaning minus log10 of the concentration expressed in molar units.

See these solved cases before continuing.
VPEFAKQYV; 6.14
KPIMSMGDII; 6.37
MPTDMLKLF; 7.00

Query: Hello, please tell me recorded pKd for this one: `CTFMIITSTK`
Reply: 4.99

Query: Provide only the value of recorded pKd for `IPIGMQFDKV`
Reply: 6.40

Query: Please indicate pKd recorded for `TPLISFFGLF`
Reply: 5.30

----------
# assay target: HLA-B*39:01
# test details: IEDB peptide-MHC binding, purified MHC/direct/fluorescence; filed as Kd, often an IC50 or EC50 that approximates it; bounds were set here for any values at or beyond the usual limits of such assays
# conditions: source organism: Cryptosporidium parvum Iowa II
property: Kd

Query: Please look at this sequence and report its Kd: `TVFRNQNRV`
Reply: ≥ 20 µM

----------
# assay target: HLA-B*08:02
# test details: IEDB peptide-MHC binding, purified MHC/direct/fluorescence; filed as Kd, often an IC50 or EC50 that approximates it; bounds were set here for any values at or beyond the usual limits of such assays
# conditions: source organism: Variola virus
pKd: −log10 of the molar value.
property: pKd

Query: Give reported pKd value for `RVYNNTARY`
Reply: ≤ 4.70

----------
Here, each record is paired with measured Kd data.
# assay target: HLA-B*07:02
# test details: IEDB peptide-MHC binding, purified MHC/direct/fluorescence; filed as Kd, often an IC50 or EC50 that approximates it; bounds were set here for any values at or beyond the usual limits of such assays
# conditions: source organism: Vibrio parahaemolyticus

Consider the reported Kd for these sequences:
EEDLPVTWR; ≥ 20 µM
GRNSRFPDK; ≥ 20 µM

Query: Quote Kd reported for `ALSMGINTV` please.
Reply: ≥ 20 µM

----------
# assay target: HLA-A*03:01
# test details: IEDB peptide-MHC binding, purified MHC/direct/fluorescence; filed as Kd, often an IC50 or EC50 that approximates it; bounds were set here for any values at or beyond the usual limits of such assays
# conditions: source organism: Mammarenavirus lassaense
pKd: −log10 of the molar value.
property: pKd

Query: Look up and report measured pKd (HLA-A*03:01) for the following sequence: `DIKLIDIAL`
Reply: ≤ 4.70

----------
# assay target: HLA-B*15:01
# test details: IEDB peptide-MHC binding, purified MHC/direct/fluorescence; filed as Kd, often an IC50 or EC50 that approximates it; bounds were set here for any values at or beyond the usual limits of such assays
# conditions: source organism: Camelpox virus M-96
pKd: −log10 of the molar value.
property: pKd

LTFLHTLYK; ≤ 4.70

Lab note: next sequence to report on.
Query: # return recorded pKd for input `ATNDGLIKK`
Reply: ≤ 4.70

----------
# assay target: HLA-A*02:12
# test details: IEDB peptide-MHC binding, purified MHC/competitive/fluorescence; filed as Kd, often an IC50 or EC50 that approximates it; bounds were set here for any values at or beyond the usual limits of such assays
# conditions: source organism: Burkholderia vietnamiensis G4
property: Kd

Query: Look up and report measured Kd for this entry: `GVNDTEAHA`
Reply: ≥ 20 µM

----------
# assay target: HLA-B*27:03
# test details: IEDB peptide-MHC binding, purified MHC/direct/fluorescence; filed as Kd, often an IC50 or EC50 that approximates it; bounds were set here for any values at or beyond the usual limits of such assays
# conditions: source organism: Vibrio parahaemolyticus AQ3810
property: Kd

Query: Please supply the value of reported Kd for the item `EPFLVQFWI`
Reply: ≥ 20 µM

----------
# assay target: HLA-B*51:01
# test details: IEDB peptide-MHC binding, purified MHC/competitive/radioactivity; filed as Kd, often an IC50 or EC50 that approximates it; bounds were set here for any values at or beyond the usual limits of such assays
# conditions: source organism: Dengue virus 1 Brazil/97-11/1997
pKd: −log10 of the molar value.
property: pKd

Query: Give pKd for `LRHPGFTVI` tested on HLA-B*51:01.
Reply: ≤ 5.00

----------
# reported Kd; entries follow
# assay target: HLA-A*03:01
# test details: IEDB peptide-MHC binding, purified MHC/competitive/radioactivity; filed as Kd, often an IC50 or EC50 that approximates it; bounds were set here for any values at or beyond the usual limits of such assays
# conditions: source organism: Dengue virus 1 Brazil/97-11/1997
Give the value, in units of nM, as a plain number.

VLLGSFGCK; 11.9

Read the next record carefully.
Query: Specify Kd for `RVSTGSQLAK` and stop.
Reply: 75.5

----------
# assay target: HLA-A*68:01
# test details: IEDB peptide-MHC binding, purified MHC/competitive/radioactivity; filed as Kd, often an IC50 or EC50 that approximates it; bounds were set here for any values at or beyond the usual limits of such assays
# conditions: source organism: Dengue virus 2 Jamaica/1409/1983
property: pKd
Just the number, please; pKd means minus log10 of the concentration in mol/L.

Use these answered entries as a reference point.
TLITGNMSFR; 7.91
AVSMANIFR; 7.26
FTMRLLSPVR; 8.11
MSYSMCTGK; 7.09

Kindly review the next sequence as well.
Query: Give pKd for the following sequence: `MALFLEEMLR`
Reply: 7.93

----------
Reported pKd by item:
# assay target: HLA-A*02:03
# test details: IEDB peptide-MHC binding, purified MHC/direct/fluorescence; filed as Kd, often an IC50 or EC50 that approximates it; bounds were set here for any values at or beyond the usual limits of such assays
# conditions: source organism: Zaire ebolavirus
pKd: −log10 of the molar value.

These recorded examples may help you get a feel for the data.
TPSGKRLQI; ≤ 4.70
VLMKQIPIW; ≤ 4.70

Query: Item `NFFHASLAY` : provide pKd
Reply: ≤ 4.70
